Hi there, I'd appreciate the recorded cAMP production activity (%) for every entry that follows.
Target: human PTH1 receptor (Homo sapiens, UniProt Q03431)
Sequence (Q03431 27-593): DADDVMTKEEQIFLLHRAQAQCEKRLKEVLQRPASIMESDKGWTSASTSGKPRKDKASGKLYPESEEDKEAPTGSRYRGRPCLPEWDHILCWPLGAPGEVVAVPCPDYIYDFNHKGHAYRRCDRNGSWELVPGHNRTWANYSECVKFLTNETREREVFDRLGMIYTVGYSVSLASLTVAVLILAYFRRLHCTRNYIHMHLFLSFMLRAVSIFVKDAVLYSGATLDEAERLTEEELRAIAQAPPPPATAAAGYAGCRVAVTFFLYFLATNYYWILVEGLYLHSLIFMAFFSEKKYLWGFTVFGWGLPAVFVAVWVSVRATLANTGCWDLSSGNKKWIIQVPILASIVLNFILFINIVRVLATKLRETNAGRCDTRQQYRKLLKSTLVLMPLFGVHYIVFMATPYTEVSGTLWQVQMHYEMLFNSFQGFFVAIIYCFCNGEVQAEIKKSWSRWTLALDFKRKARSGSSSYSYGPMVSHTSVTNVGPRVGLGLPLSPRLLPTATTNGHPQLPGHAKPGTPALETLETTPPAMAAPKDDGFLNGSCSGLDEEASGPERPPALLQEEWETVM
Assay info: In vitro cAMP signal activity in HKRK-B7 cells (LLC-PK1 cells overexpressing the human PTH1 receptor)
Format: cell-based
Protocol conditions: HKRK-B7 cells; compound at 1×10^−3 M; cAMP produced as percentage of that produced by hPTH(1-34) at 100 nM
Note: unit % is implicit; provide only the numeric part.

What measured cAMP production activity (%) is associated with COC(=O)c1sccc1S(=O)(=O)N1CCC2(CC1)N=C(C1CCCCC1)NC2=O [Compound 62] on human PTH1 receptor (Homo sapiens, UniProt Q03431)?
56

Give human PTH1 receptor (Homo sapiens, UniProt Q03431) cAMP production activity (%) for Cc1cc(C(=O)N2CCS(=O)(=O)CC2)cc(C)c1/C=C/S(=O)(=O)N1CCC2(CC1)N=C(C1CCC(C)CC1)NC2=O (stereo not drawn) [Compound 1002]
50

Quick check: cAMP production activity (%) on human PTH1 receptor (Homo sapiens, UniProt Q03431), item O=C1NC(c2cccc(OC(F)(F)F)c2)=NC12CCN(S(=O)(=O)/C=C/c1ccc3c(ccn3C[C@H](O)CO)c1)CC2 [Compound 597] ?
51

So what cAMP production activity (%) did Cc1ccc(C2=NC3(CCN(S(=O)(=O)/C=C/c4c(C)cc(C(=O)N5CCC(C)(O)CC5)cc4C)CC3)C(=O)N2)cc1C [Compound 1237] get with human PTH1 receptor (Homo sapiens, UniProt Q03431)?
96

Hello, I am looking for reported cAMP production activity (%) with human PTH1 receptor (Homo sapiens, UniProt Q03431) for O=C1NC(C2CCC(CCC(F)(F)F)CC2)=NC12CCN(S(=O)(=O)/C=C/c1cccc3c1ccn3C[C@@H](O)CO)CC2 (stereo partly drawn) [Compound 541] . Could you help?
79

Fill in the recorded cAMP production activity (%) for this compound, with human PTH1 receptor (Homo sapiens, UniProt Q03431) as test system: Cc1cc(C(=O)N2CCC(O)(CF)CC2)cc(C)c1CCS(=O)(=O)N1CCC2(CC1)N=C(c1ccc3c(c1)OC(F)(F)O3)NC2=O [Compound 1275]
89

* * *

Target: human PTH1 receptor (Homo sapiens, UniProt Q03431)
Assay info: In vitro cAMP signal activity in HKRK-B7 cells (LLC-PK1 cells overexpressing the human PTH1 receptor)
Format: cell-based
Protocol conditions: HKRK-B7 cells; compound at 1×10^−3 M; cAMP produced as percentage of that produced by hPTH(1-34) at 100 nM
Structures can show the parent of a compound that is named as a salt.
Property label: cAMP production activity (%)
Write the value in % as a bare number.

Fill blank: measured cAMP production activity (%) of the compound Cc1cc(C(=O)N2CCN(CCO)CC2)ccc1CCS(=O)(=O)N1CCC2(CC1)N=C(c1cccc(OC(F)(F)F)c1)NC2=O is ____.
66

// query cAMP production activity (%) value for entry Cc1cc(NC[C@H](O)CO)ccc1CCS(=O)(=O)N1CCC2(CC1)N=C(c1cccc(C(F)(F)F)c1)NC2=O
45

Requested read-out: cAMP production activity (%). Entry: O=C(Nc1ccc(/C=C/S(=O)(=O)N2CCC3(CC2)N=C(C2CCCCC2)NC3=O)c(C(F)(F)F)c1)C1CC1
36

What cAMP production activity (%) value was documented for this compound, Cc1nc(CC(=O)N2CCCC(C3=NC4(CCN(S(=O)(=O)CCc5cccc6ccccc56)CC4)C(=O)N3)C2)c(C)s1 (centres unmarked) ?
18

Which value of cAMP production activity (%) has been reported for O=C1NC(C2CCCCC2)=NC12CCN(S(=O)(=O)CCc1cccc3c1ccn3C[C@H](O)[C@@H](O)COCc1ccccc1)CC2 in the records?
84

Given Cc1cc(N(C)C(N)=O)cc(C)c1/C=C/S(=O)(=O)N1CCC2(CC1)N=C(c1cccc(OC(F)(F)F)c1)NC2=O , state its recorded cAMP production activity (%).
83

Return reported cAMP production activity (%); argument: Cc1cc(C(=O)N(C)C)ccc1CCS(=O)(=O)N1CCC2(CC1)N=C(c1cccc(OC(F)(F)F)c1)N/C2=N\O
90

Return reported cAMP production activity (%); argument: Cc1cc(C(=O)N2CCC(C)(O)CC2)cc(C)c1/C=C/S(=O)(=O)N1CCC2(CC1)N=C(c1ccc(OC(F)(F)F)c(OCCCC(F)(F)F)c1)NC2=O
106

Reported cAMP production activity (%), compound Cc1cc(N2C(=O)N(C)C(C)(C)C2=O)cc(C)c1CCS(=O)(=O)N1CCC2(CC1)N=C(C1CCC(C)CC1)NC2=O (centres unmarked) : ____
58

# input compound: Cc1cc(CN2C(=O)CNC2=O)cc(C)c1CCS(=O)(=O)N1CCC2(CC1)N=C(C1CCC(C)CC1)NC2=O (centres unmarked) ; wanted: its cAMP production activity (%)
53

# lookup: cAMP production activity (%) of Cc1cc(C(=O)N2CCC2)ccc1CCS(=O)(=O)N1CCC2(CC1)N=C(c1cccc(C(F)(F)F)c1)NC2=O
72

Which measured cAMP production activity (%) value corresponds to CCCOCCCCCC1=NC2(CCN([S@TB18](=O)(=O)/C=C/c3c(C)cc(N(C)C(N)=O)cc3C)CC2)C(=O)N1 ?
119

Quick one: cAMP production activity (%) for Cc1cc(N(C(N)=O)C(C)C)cc(C)c1CCS(=O)(=O)N1CCC2(CC1)N=C(C1CCC(C)CC1)NC2=O (centres unmarked) ?
92

GET /values?readout=cAMP production activity (%)&item= Cc1cc(N(C)C(N)=O)cc(C)c1/C=C/[S@TB3](=O)(=O)N1CCC2(CC1)N=C(c1ccc(CCCCCC(F)(F)F)cc1)NC2=O
88

Would you mind telling me what cAMP production activity (%) value was observed for COc1cc(N(C)C(N)=O)cc(C)c1/C=C/S(=O)(=O)N1CCC2(CC1)N=C(C1CCC(C)CC1)NC2=O (centres unmarked) ?
87

Which cAMP production activity (%) is reported for this compound? Cc1c(CCS(=O)(=O)N2CCC3(CC2)N=C(C2CCC(C)CC2)NC3=O)ccc(N(C)C(N)=O)c1C (centres unmarked)
65

Sample Cc1cc(N2C(=O)C(C)(C)C[C@@H]2CO)cc(C)c1/C=C/S(=O)(=O)N1CCC2(CC1)N=C(c1cccc(OC(F)(F)F)c1)NC2=O — what was its cAMP production activity (%)?
16

Requested read-out: cAMP production activity (%). Entry: CC(=O)Nc1ccc(CCS(=O)(=O)N2CCC3(CC2)N=C(C2CCCCCC2)NC3=O)c(C)c1
69

Reported cAMP production activity (%) for Cc1cc(N(C)C(N)=O)cc(C)c1CC(F)(F)S(=O)(=O)N1CCC2(CC1)N=C(c1cccc(OC(F)(F)F)c1)NC2=O : what is it?
100

What does the data say about its cAMP production activity (%)? Entry: Cc1cc(N(C)C(N)=O)cc(C)c1CC[S@TB3](=O)(=O)N1CCC2(CC1)N=C(c1cccc(CCC(C)C)c1)NC2=O
124

Entry under review: Cc1cc(C(=O)N(C)C)ccc1CCS(=O)(=O)N1CCC2(CC1)N=C(c1cscn1)NC2=O . Reported cAMP production activity (%)?
5.8

Please look up its cAMP production activity (%): Cc1nc(C)c(S(=O)(=O)N2CCC3(CC2)N=C(C2CCCCC2)NC3=O)s1
39

Which cAMP production activity (%) is reported for this compound? Cc1cc(C(=O)N(C)C)ccc1CCS(=O)(=O)N1CCC2(CC1)N=C(c1cccc(Cl)c1C)NC2=O
82

Look at this compound and give its reported cAMP production activity (%). Cc1cc(OC[C@H](O)CO)cc(C)c1CCS(=O)(=O)N1CCC2(CC1)N=C(c1ccc3c(c1)OC(F)(F)O3)NC2=O
9.2

cAMP production activity (%) lookup needed for CC(=O)N(c1ccc(/C=C/S(=O)(=O)N2CCC3(CC2)N=C(C2CCCCC2)NC3=O)c(C)c1)C1CCCC1 [Compound 734, trifluoroacetate] , thanks.
47

What value of cAMP production activity (%) has been recorded for this entry: Cc1cc(N2C(=O)NC(C)(C)C2=O)cc(C)c1/C=C/S(=O)(=O)N1CCC2(CC1)N=C(C1CCC(C)CC1)NC2=O (centres unmarked)
43

Taken from patent US9169254B2.
